Experiment: Toxicity liver stage against HepG2, at 10uM
Assay type: cell-based
Set-up: test concentration 10 uM, cell line HepG2-A16-CD81EGFP
Details: human, HepG2-A16-CD81EGFP cells; read-out: INHIBITION
Parameter: cytotoxicity at 10 µM. Scope: all listed entries.
Field format: number, assumed %, no unit text.

compound: CC[C@H](C)[C@H](N)C(=O)N1CC(=O)c2sc(Nc3ccc(F)cc3)nc2C1
assayMetric: cytotoxicity at 10 µM
scaleUnit: %
assayResult: -1.44
//
compound: Cn1cc(S(=O)(=O)N2CCCC2Cn2ccnc2)cn1 (stereo not given)
assayMetric: cytotoxicity at 10 µM
scaleUnit: %
assayResult: 6.58
//
compound: CCN1CCN(S(=O)(=O)N2CCCC2)[C@H]2CS(=O)(=O)C[C@H]21
assayMetric: cytotoxicity at 10 µM
scaleUnit: %
assayResult: -4.14
//
compound: CCN(Cc1cccc(C(=O)Nc2ncc(C)s2)c1)[C@H]1COC[C@@H]1O
assayMetric: cytotoxicity at 10 µM
scaleUnit: %
assayResult: -2.61

Okay, next one:
Exercise: For the compound shown here, COc1ccsc1C(=O)Nc1cc(CN2CCOCC2)ccc1C , give the reported cytotoxicity at 10 µM.
Solution: -0.0813

====

Assay: Toxicity liver stage against HepG2, at 10uM
Format: cell-based
Design: test concentration 10 uM, cell line HepG2-A16-CD81EGFP
Conditions: human, HepG2-A16-CD81EGFP cells; read-out: INHIBITION
assayMetric: cytotoxicity at 10 µM (%)
Field format: number, assumed %, no unit text.

molecule: CC1CC2(CCN(C(=O)c3c[nH]cn3)CC2)c2ccccc21 (stereo unspecified)
cytotoxicity at 10 µM [%]: 2.44
--
molecule: CCc1cc(N2CCC(NCCc3ccc(C)o3)CC2)nc(C)n1
cytotoxicity at 10 µM [%]: -0.554

Exercise: For the molecule shown here, NS(=O)(=O)c1cnn(-c2ccc(NC(=O)CC3CCCC3)cn2)c1 , give the reported cytotoxicity at 10 µM.
Solution: 6.74

====

Assay: Toxicity liver stage against HepG2, at 10uM
Format: cell-based
Design: test concentration 10 uM, cell line HepG2-A16-CD81EGFP
Settings: human, HepG2-A16-CD81EGFP cells; read-out: INHIBITION
assayMetric: cytotoxicity at 10 µM (%)
Field format: number, assumed %, no unit text.

molecule: Cc1cccc(CN2C[C@@H]3CN(C(=O)c4cnoc4C)C[C@@H]3C2=O)n1
cytotoxicity at 10 µM (%): 5.71

molecule: Cc1ccc2cc(C3(O)CCN(C)CC3)ccc2n1
cytotoxicity at 10 µM (%): -0.432

molecule: COc1ccc(C)nc1NC(=O)Cc1c(C)nn(C)c1C
cytotoxicity at 10 µM (%): -0.302

molecule: Cc1c(C2N3CC4(C(C)C)CN2CC(C(C)C)(C3)C4=O)[nH]c(=O)[nH]c1=O (stereo unspecified)
cytotoxicity at 10 µM (%): 8.71

molecule: Cc1nnc2n1CCN(CC(O)CN1CCC(C)CC1)C2 (stereo unspecified)
cytotoxicity at 10 µM (%): 2.78

Okay, next one:
Exercise: For the molecule shown here, CNc1nc(C(=O)N2CCCC(CO)(CCCOC)C2)cs1 (stereo unspecified) , give the reported cytotoxicity at 10 µM.
Solution: 7.43

====

Experiment: Toxicity liver stage against HepG2, at 10uM
Assay type: cell-based
Design: test concentration 10 uM, cell line HepG2-A16-CD81EGFP
Conditions: human, HepG2-A16-CD81EGFP cells; read-out: INHIBITION
assayMetric: cytotoxicity at 10 µM (%)
Field format: number, assumed %, no unit text.

See these solved cases before continuing.
compound: CN(C)C(=O)Cn1ccc2cc(NC(=O)N3CCOCC3)ccc21
scaleUnit: %
cytotoxicity at 10 µM: 6.35
//
compound: CC(C)OCCC(=O)Nc1cccc(N2CCN(CC3CC3)CC2)c1
scaleUnit: %
cytotoxicity at 10 µM: -1.11
//
compound: COCc1nc2cc(NCc3cc[nH]n3)ccc2o1
scaleUnit: %
cytotoxicity at 10 µM: 6.7
//
compound: Cc1ccc(C(=O)NS(=O)(=O)c2ccc3c(c2)OCCCO3)o1
scaleUnit: %
cytotoxicity at 10 µM: 2.91
//
compound: Cc1nc(C2CCCCC2)sc1C(=O)O
scaleUnit: %
cytotoxicity at 10 µM: 15

Exercise: For the compound shown here, Cc1noc(C)c1CN1CC[C@H]2OCC[C@@]2(C(=O)N2CCOCC2)C1 , give the reported cytotoxicity at 10 µM.
Solution: -77.2

Exercise: For the compound shown here, CCCS(=O)(=O)N1CCC2(CC1)COCCN(C(C)=O)C2 , give the reported cytotoxicity at 10 µM.
Solution: 15.9

Exercise: For the compound shown here, CS(=O)(=O)CCOCCNc1ccc(C#N)cc1F , give the reported cytotoxicity at 10 µM.
Solution: -3.34
